// data source = paper PMC9402538

# subject of test: APC (303–739) (Homo sapiens)
# Sequence (P25054 303-739): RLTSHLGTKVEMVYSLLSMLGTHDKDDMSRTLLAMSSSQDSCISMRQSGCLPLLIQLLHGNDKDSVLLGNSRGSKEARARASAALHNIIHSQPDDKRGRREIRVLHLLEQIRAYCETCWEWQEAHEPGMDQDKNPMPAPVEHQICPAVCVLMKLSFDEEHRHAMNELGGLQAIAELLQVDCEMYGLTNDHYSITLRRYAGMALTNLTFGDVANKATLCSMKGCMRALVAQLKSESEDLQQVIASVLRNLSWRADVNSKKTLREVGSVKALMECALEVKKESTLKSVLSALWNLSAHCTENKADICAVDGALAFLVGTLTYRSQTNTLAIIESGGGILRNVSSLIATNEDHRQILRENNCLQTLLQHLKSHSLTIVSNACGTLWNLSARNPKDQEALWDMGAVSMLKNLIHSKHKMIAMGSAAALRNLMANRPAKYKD
# assay summary: FP competitive assay using tracer 7
# Format: binding
# conditions: tracer 7; read-out: IC50 Repeat 1
Where a SMILES comes first, the peptide text is derived from it. [ ]: non-standard residue; d: D form. The star is where a group is joined. Phe(4-tBu) = CC(C)(C)c1ccc(C[C@H](N)C(=O)O)cc1; Ala(cPent) = N[C@@H](CC1CCCC1)C(=O)O; Benzoyl(4-OMe) = COc1ccc(C(=O)*)cc1; Ala(cPr) = N[C@@H](CC1CC1)C(=O)O; Cha = N[C@@H](CC1CCCCC1)C(=O)O; hLeu = CC(C)CC[C@H](N)C(=O)O
pIC50: recorded values
Scale note: pIC50 = -log10(concentration in M).

Worked examples follow.
>  <molecule>
COc1ccc(C(=O)N[C@@H](C)C(=O)NCC(=O)N[C@@H](CCC(=O)O)C(=O)N[C@@H](CO)C(=O)N[C@@H](CC2CCCCC2)C(=O)N[C@@H](Cc2ccc(O)cc2)C(=O)N[C@@H](CCC(=O)O)C(N)=O)cc1 [MAI-520] ({Benzoyl(4-OMe)}-AGES[Cha]YE-NH2)

>  <result value>
7.26

$$$$
>  <molecule>
COc1ccc(C(=O)N[C@@H](C)C(=O)NCC(=O)N[C@@H](CCC(=O)O)C(=O)N[C@@H](CO)C(=O)N[C@@H](CC2CCCC2)C(=O)N[C@@H](Cc2ccc(O)cc2)C(=O)N[C@@H](CCC(=O)O)C(N)=O)cc1 [MAI-519] ({Benzoyl(4-OMe)}-AGES[Ala(cPent)]YE-NH2)

>  <result value>
7.64

$$$$
>  <molecule>
COc1ccc(C(=O)N[C@@H](C)C(=O)NCC(=O)N[C@@H](CCC(=O)O)C(=O)N[C@@H](CO)C(=O)N[C@@H](CC(C)C)C(=O)N[C@@H](Cc2ccc(O)cc2)C(=O)N[C@@H](Cc2ccc(C(C)(C)C)cc2)C(N)=O)cc1 [MAI-522] ({Benzoyl(4-OMe)}-AGESLY[Phe(4-tBu)]-NH2)

>  <result value>
6.78

$$$$
>  <molecule>
COc1ccc(C(=O)N[C@@H](C)C(=O)NCC(=O)N[C@@H](CCC(=O)O)C(=O)N[C@@H](CO)C(=O)N[C@@H](CC2CC2)C(=O)N[C@@H](Cc2ccc(O)cc2)C(=O)N[C@@H](CCC(=O)O)C(N)=O)cc1 [MAI-518] ({Benzoyl(4-OMe)}-AGES[Ala(cPr)]YE-NH2)

>  <result value>
7.34

$$$$

Attention now shifts to the item below.
Find the recorded pIC50 belonging to COc1ccc(C(=O)N[C@@H](C)C(=O)NCC(=O)N[C@@H](CCC(=O)O)C(=O)N[C@@H](CO)C(=O)N[C@@H](CCC(C)C)C(=O)N[C@@H](Cc2ccc(O)cc2)C(=O)N[C@@H](CCC(=O)O)C(N)=O)cc1 [MAI-517] ({Benzoyl(4-OMe)}-AGES[hLeu]YE-NH2) and report it.
7.59
